# Measured On: human Nav1.7 (Homo sapiens (Human), UniProt Q15858)
# Sequence (Q15858 whole entry): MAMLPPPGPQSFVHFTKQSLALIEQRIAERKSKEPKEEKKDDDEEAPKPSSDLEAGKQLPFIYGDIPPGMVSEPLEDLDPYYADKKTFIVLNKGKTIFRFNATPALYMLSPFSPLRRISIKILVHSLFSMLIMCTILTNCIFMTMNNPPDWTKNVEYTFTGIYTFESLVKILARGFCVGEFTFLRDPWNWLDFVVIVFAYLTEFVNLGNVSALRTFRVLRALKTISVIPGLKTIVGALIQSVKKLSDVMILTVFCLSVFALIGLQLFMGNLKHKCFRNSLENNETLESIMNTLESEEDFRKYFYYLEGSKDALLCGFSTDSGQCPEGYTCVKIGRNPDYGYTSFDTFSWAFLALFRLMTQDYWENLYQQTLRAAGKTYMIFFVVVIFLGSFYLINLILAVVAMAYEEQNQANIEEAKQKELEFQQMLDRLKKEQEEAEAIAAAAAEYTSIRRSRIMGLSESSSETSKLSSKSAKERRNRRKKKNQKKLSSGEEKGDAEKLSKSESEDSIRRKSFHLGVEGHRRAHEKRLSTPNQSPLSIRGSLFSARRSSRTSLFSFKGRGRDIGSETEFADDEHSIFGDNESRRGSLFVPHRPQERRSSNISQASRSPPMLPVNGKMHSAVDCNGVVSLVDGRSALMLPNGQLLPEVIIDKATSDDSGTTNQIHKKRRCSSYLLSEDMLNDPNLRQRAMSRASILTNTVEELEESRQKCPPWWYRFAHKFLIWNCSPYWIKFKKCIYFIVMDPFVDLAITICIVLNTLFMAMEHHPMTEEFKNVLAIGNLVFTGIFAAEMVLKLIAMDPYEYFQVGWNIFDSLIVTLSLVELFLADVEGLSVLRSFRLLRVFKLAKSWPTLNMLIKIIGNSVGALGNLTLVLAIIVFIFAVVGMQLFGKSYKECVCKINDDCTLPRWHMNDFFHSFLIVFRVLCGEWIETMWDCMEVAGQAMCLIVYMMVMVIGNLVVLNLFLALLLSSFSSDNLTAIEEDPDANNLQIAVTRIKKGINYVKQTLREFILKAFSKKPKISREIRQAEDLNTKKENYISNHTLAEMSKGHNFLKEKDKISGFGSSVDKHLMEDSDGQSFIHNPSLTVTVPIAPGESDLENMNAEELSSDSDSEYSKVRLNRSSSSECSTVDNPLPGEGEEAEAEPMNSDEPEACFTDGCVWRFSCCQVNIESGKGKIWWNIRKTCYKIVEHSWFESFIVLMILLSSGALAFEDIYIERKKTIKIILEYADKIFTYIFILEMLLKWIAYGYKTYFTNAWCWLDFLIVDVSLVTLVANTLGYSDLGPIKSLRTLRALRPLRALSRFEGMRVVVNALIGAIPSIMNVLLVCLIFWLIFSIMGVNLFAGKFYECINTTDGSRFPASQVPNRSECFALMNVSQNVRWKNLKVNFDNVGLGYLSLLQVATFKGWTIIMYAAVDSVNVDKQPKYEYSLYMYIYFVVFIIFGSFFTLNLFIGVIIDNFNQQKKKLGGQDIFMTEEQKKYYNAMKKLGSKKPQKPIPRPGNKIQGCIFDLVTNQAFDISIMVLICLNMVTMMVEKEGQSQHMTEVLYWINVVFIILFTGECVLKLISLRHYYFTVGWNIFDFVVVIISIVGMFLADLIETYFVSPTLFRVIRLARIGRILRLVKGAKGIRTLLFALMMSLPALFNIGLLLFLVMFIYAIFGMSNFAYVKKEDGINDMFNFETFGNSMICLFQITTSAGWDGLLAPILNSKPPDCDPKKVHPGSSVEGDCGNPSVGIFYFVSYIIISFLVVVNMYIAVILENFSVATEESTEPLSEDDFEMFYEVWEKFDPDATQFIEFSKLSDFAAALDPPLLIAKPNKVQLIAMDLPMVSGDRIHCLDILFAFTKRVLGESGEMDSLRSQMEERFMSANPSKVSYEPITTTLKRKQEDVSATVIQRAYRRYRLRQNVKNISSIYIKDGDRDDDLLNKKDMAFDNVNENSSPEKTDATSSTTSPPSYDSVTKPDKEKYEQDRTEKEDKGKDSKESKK
# Assay Info: FRET-based membrane potential assay, recombinant human sodium channel Nav1.7
# Measurement Context: HEK293 cells stably expressing recombinant human Nav1.7; depolarization with veratridine (EC80) + scorpion venom
Readout Type: IC50

[
  {
    "Cpd Smiles": "O=C1N(c2cccc3c2cnn3-c2ccccc2F)CCN1S(=O)(=O)c1cccs1",
    "Measured On": "human Nav1.7 (Homo sapiens (Human), UniProt Q15858)",
    "Readout Type": "IC50",
    "Observed": "2270 nM"
  },
  {
    "Cpd Smiles": "CC(C)NC(=O)CN1CCN(c2cccc3c2cnn3-c2ccccc2F)C1=O",
    "Measured On": "human Nav1.7 (Homo sapiens (Human), UniProt Q15858)",
    "Readout Type": "IC50",
    "Observed": "2680 nM"
  },
  {
    "Cpd Smiles": "O=C1N(Cc2ccncn2)CCN1c1cccc2c1cnn2-c1ccccc1F",
    "Measured On": "human Nav1.7 (Homo sapiens (Human), UniProt Q15858)",
    "Readout Type": "IC50",
    "Observed": "11200 nM"
  },
  {
    "Cpd Smiles": "CO[C@H]1CCCC[C@@H]1N1CCN(c2cccc3c2cnn3-c2ccccc2F)C1=O",
    "Measured On": "human Nav1.7 (Homo sapiens (Human), UniProt Q15858)",
    "Readout Type": "IC50",
    "Observed": "1860 nM"
  },
  {
    "Cpd Smiles": "O=C1N(Cc2cocn2)CCN1c1cccc2c1cnn2-c1ccc(F)cc1F",
    "Measured On": "human Nav1.7 (Homo sapiens (Human), UniProt Q15858)",
    "Readout Type": "IC50",
    "Observed": "392 nM"
  }
]

###

# Measured On: human Nav1.7 (Homo sapiens (Human), UniProt Q15858)
# Assay Info: FRET-based membrane potential assay, recombinant human sodium channel Nav1.7
# Measurement Context: HEK293 cells stably expressing recombinant human Nav1.7; depolarization with veratridine (EC80) + scorpion venom
pIC50: −log10 of the molar value.
Each entry below carries its reported pIC50.
Readout Type: pIC50

[
  {
    "Cpd Smiles": "O=C(CN1CCN(c2cccc3c2cnn3-c2ccccc2F)C1=O)c1cccc(F)c1",
    "Readout Type": "pIC50",
    "Observed": 5.50
  },
  {
    "Cpd Smiles": "O=C1N(Cc2cocn2)CCN1c1cccc2c1cnn2-c1ccccc1F",
    "Readout Type": "pIC50",
    "Observed": 6.42
  },
  {
    "Cpd Smiles": "O=C1N(c2cccc3c2cnn3-c2ccccc2F)CCN1[C@H]1CCCC[C@@H]1O",
    "Readout Type": "pIC50",
    "Observed": 4.82
  },
  {
    "Cpd Smiles": "O=C1N(CC(=O)N2C[C@H](F)C[C@@H]2c2cc(F)ccc2F)CCN1c1cccc2c1cnn2-c1ccccc1F",
    "Readout Type": "pIC50",
    "Observed": 5.81
  },
  {
    "Cpd Smiles": "CC(C)(C)c1nnc(CN2CCN(c3cccc4c3cnn4-c3ccccc3F)C2=O)o1",
    "Readout Type": "pIC50",
    "Observed": 5.60
  },
  {
    "Cpd Smiles": "O=C(CN1CCN(c2cccc3c2cnn3-c2ccccc2F)C1=O)N1CC(F)(F)C(F)(F)C1",
    "Readout Type": "pIC50",
    "Observed": 5.77
  },
  {
    "Cpd Smiles": "O=C(CN1CCN(c2cccc3c2cnn3-c2ccccc2F)C1=O)C1CCC1",
    "Readout Type": "pIC50",
    "Observed": 6.20
  },
  {
    "Cpd Smiles": "O=C(CN1CCN(c2cccc3c2cnn3-c2ccccc2F)C1=O)N1CCC(F)(F)C1",
    "Readout Type": "pIC50",
    "Observed": 5.71
  }
]
